experimentalTarget: human adenosine A1 receptor (Homo sapiens, UniProt P30542)
Sequence (P30542 1-326): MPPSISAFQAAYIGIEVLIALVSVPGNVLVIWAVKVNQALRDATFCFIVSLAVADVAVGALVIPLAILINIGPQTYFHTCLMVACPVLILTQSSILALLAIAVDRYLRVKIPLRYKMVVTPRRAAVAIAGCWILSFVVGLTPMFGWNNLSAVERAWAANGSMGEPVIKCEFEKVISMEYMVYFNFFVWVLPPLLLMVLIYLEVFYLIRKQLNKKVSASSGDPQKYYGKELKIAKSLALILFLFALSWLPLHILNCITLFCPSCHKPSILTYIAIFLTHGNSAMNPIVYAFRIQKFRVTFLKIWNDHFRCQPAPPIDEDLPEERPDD
protocol: Radioligand
Assay type: binding
measurementParameters: read-out: Max Displacement A1AR-CHO membranes
measurementType: inhibition at 10 µM (%)
Lab book: enter the figure in %, no units written.

- compound: "N#Cc1c(N)nc2c(oc3ccccc32)c1-c1ccccc1 [compound 15]"
  experimentalTarget: "human adenosine A1 receptor (Homo sapiens, UniProt P30542)"
  scaleUnit: "%"
  inhibition at 10 µM: 27

Return inhibition at 10 µM (reported value) for this compound: CN1CCc2nc3sc(C(=O)Nc4ccc(Cl)cc4)c(N)c3cc2C1 [compound 10]
28

Return inhibition at 10 µM (reported value) for this compound: Cc1ccc(N2C(=O)c3cccc(N)c3C2=O)cc1 [compound 21]
86

Return inhibition at 10 µM (reported value) for this compound: COc1ccc(Cl)cc1Nc1nc(N)nc(-c2oc3ccccc3c2C)n1 [compound 9]
41

Return inhibition at 10 µM (reported value) for this compound: Cn1c(=O)cc2c3c(c(N)ccc31)C(=O)c1ccccc1-2 [compound 35]
100

Return inhibition at 10 µM (reported value) for this compound: Nc1ccc(N)c2c1C(=O)c1ccccc1C2=O [compound 29]
100

Return inhibition at 10 µM (reported value) for this compound: N#Cc1c(N)nc2c(C(N)=O)c(Nc3ccccc3)sc2c1-c1ccccc1 [compound 8]
100

Return inhibition at 10 µM (reported value) for this compound: Nc1c(C(=O)Nc2ccccc2F)sc2nc3c(cc12)C(=O)CCC3 [compound 6]
32

Return inhibition at 10 µM (reported value) for this compound: Nc1ccc(Cl)c2c1C(=O)c1ccccc1C2=O [compound 49]
100

Return inhibition at 10 µM (reported value) for this compound: Cc1cccc(NC2=C(N)C(=O)c3ccccc3C2=O)c1 [compound 50]
27

Return inhibition at 10 µM (reported value) for this compound: Nc1c(C(=O)Nc2nccs2)sc2nc3c(cc12)C(=O)CCC3 [compound 14]
25

Return inhibition at 10 µM (reported value) for this compound: COc1ccc(N)c2c1C(=O)c1ccccc1C2=O [compound 26]
100
